Provide the reported half-life at 2 μM of each item.
# procedure summary: Dog GI S9 stability
# conditions used: s9
One number for each entry, in min.

Examples with answers:
{"sample smiles": "Cc1nc(F)ccc1[C@@H](c1cn(C23CC(C2)C3)nn1)N(C(=O)OCOP(=O)(O)O)c1cc(C#N)c2ncc(C#N)c(N[C@H](C)C(C)(C)C)c2c1", "assay readout": "half-life at 2 μM", "measured value": 20}
{"sample smiles": "Cc1nc(F)ccc1[C@@H](c1cn(C23CC(C2)C3)nn1)N(C(=O)OCOP(=O)(O)O)c1cc(C#N)c2ncc(C#N)c(NCC(C)(C)C)c2c1", "assay readout": "half-life at 2 μM", "measured value": 14}

Now let's try a different one.
Quickly give me recorded half-life at 2 μM for Cn1ccc2c([C@@H](c3cn(C45CC(C4)C5)nn3)N(C(=O)OCCCOP(=O)(O)O)c3cc(Cl)c4ncc(C#N)c(NCC(C)(C)C)c4c3)cccc2c1=O 12

----------
# procedure summary: Human plasma stability
# Assay type: in vitro ADME
# conditions used: substrate 2 μM, read-out: Human Plasma T½
# Protocol: Plasma stability assays were performed in human and dog. Duplicate sets were performed with a tecan liquid handler or with cluster tubes in a heat block. Generally, a substrate concentration of 2 μM was used. Plasma in sodium EDTA was provided by BioIVT as whole plasma with K2 EDA as anti-coagulent.
assay readout: half-life at 2 μM (h)
Give bare numbers, in h.

{"compound": "COC[C@@H](C)OC(=O)N(c1cc(C#N)c2ncc(C#N)c(NCC(C)(C)C)c2c1)[C@H](c1cn(C23CC(C2)C3)nn1)c1ccc(F)nc1C [Example 9]", "quantity unit": "h", "half-life at 2 μM": 26.4}

// for each compound below, give its half-life at 2 μM
1. C[C@H](N)C(=O)OCOC(=O)N(c1cc(Cl)c2ncc(C#N)c(NCC(C)(C)C)c2c1)[C@H](c1cn(C23CC(C2)C3)nn1)c1cccc2c(=O)n(C)ccc12 [Example 2]
2. Cc1nc(F)ccc1[C@@H](c1cn(C23CC(C2)C3)nn1)N(C(=O)OCOC(=O)C1CCN(C)CC1)c1cc(C#N)c2ncc(C#N)c(NCC(C)(C)C)c2c1 [Example 8]
3. Cn1ccc2c([C@@H](c3cn(C45CC(C4)C5)nn3)N(C(=O)OCOP(=O)(O)O)c3cc(Cl)c4ncc(C#N)c(NCC(C)(C)C)c4c3)cccc2c1=O [Example 1]

1. 0.233
2. 3.95
3. 6.15

----------
What solubility at 2.5 h was measured for each of the following?
# procedure summary: Solubility in FaSSIF and FeSSIF
# Format: physicochemical
# conditions used: fed-state simulated intestinal fluid (FeSSIF), fessif, thermodynamic from solid, fed-state simulated intestinal fluid pH 5.0, ambient temperature, read-out: FeSSIF (pH 5.0) solubility
# Description: Solubility was determined at ambient temperature in buffered fasted-state simulated intestinal fluid (FaSSIF, pH 6.5) and buffered fed-state simulated intestinal fluid (FeSSIF, pH 5.0) prepared in-house using BioRelevant Simulated Intestinal Fluid (SIF) powder. […] All diluted supernatants were analyzed by UPLC using a Waters Acquity UPLC with a PDA UV detector.
Numbers only, in µg/mL.

// solved cases for solubility at 2.5 h follow
{"compound": "CC(=O)OCOC(=O)N(c1cc(C#N)c2ncc(C#N)c(NCC(C)(C)C)c2c1)[C@H](c1cn(C23CC(C2)C3)nn1)c1ccc(F)nc1C [Example 7]", "solubility at 2.5 h / µg/mL": 42}
{"compound": "Cc1nc(F)ccc1[C@@H](c1cn(C23CC(C2)C3)nn1)N(C(=O)OCOC(=O)C1CCN(C)CC1)c1cc(C#N)c2ncc(C#N)c(NCC(C)(C)C)c2c1 [Example 8]", "solubility at 2.5 h / µg/mL": 450}
{"compound": "Cn1ccc2c([C@@H](c3cn(C45CC(C4)C5)nn3)N(C(=O)OCCCOP(=O)(O)O)c3cc(Cl)c4ncc(C#N)c(NCC(C)(C)C)c4c3)cccc2c1=O [Example 4]", "solubility at 2.5 h / µg/mL": 210}

Let us move to another entry and its solubility at 2.5 h.
Note down solubility at 2.5 h recorded for COC[C@@H](C)OC(=O)N(c1cc(C#N)c2ncc(C#N)c(NCC(C)(C)C)c2c1)[C@H](c1cn(C23CC(C2)C3)nn1)c1ccc(F)nc1C [Example 9] 52
